# subject.of.test: T1, human MUC16 (mucin 16), endogenously expressed on cells (human)
# T1 construct: Endogenous MUC16 on OVCAR-3 / OVCAR3-Luc / PEO-1 / HPAC cells; also called hMUC16
# measurement.notes: MSD electrochemiluminescence cell binding; RLU ratio OVCAR-3/SK-OV-3; Ab 16.7 nM
Listed here are binders together with their documented Ratio: anti-MUC16 Binding OVCAR-3/SK-OV-3.
Field: numeric (ratio). Do not append units.

binder	number
H1H8770P (antibody, human IgG1, V domains shown, Human IgG1 (H1H)) VH: QVQLVESGGGVVQPGRSLRLSCAASGFTFSDHGMHWVRQAPGKGLEWVAVISYHGSNKHYADSVKGRFTISRDNSKNALYLQMNSLRPEDTAMYYCAKDGYDFWNGYSLFDYWGQGTLVTVSS VL: DIQMTQSPSSLSASVGDRVTITCRASQSISNYLNWYQQKPGKAPKLLIYTASNLLSGVPSRFSGSGSGTDFTLTISSLQPEDFATYYCQQSYSTPPITFGQGTKLEIK	3

Now for a further binder.
// query Ratio: anti-MUC16 Binding OVCAR-3/SK-OV-3 value for entry H2M7135N (antibody, mouse IgG2, V domains shown, Mouse IgG2 constant region (H2M)) VH: EVQLVESGGGLVQAGGSLRLSCAASGFTFSYHEMNWVRQAPGKGLEWVSYIGSRGTTKHYADPVKGRFTISRDNAKNSLYLQMNSLRAEDTAVYYCASEVGSILGYSMDVWGQGTTVTVSS VL: DIQMTQSPSSLSASVGDRVTITCRASQSVSRYLNWCQQKPGKAPKLLTYAASSLQSGVPSRFSGSGSGTDFTLTISSLQPEDFAAYFCQQSYSTPPITFGQGTRLEIK
5
